Recorded measurements of koff, one per entry
Target: T1, Human C5 (human, UniProt P01031 19-1676)
T1 construct: The natural protein has a beta and an alpha chain; also called complement factor 5; complement component 5
Test: SPR, mAb captured by anti-hFc, 37C
MEASURED QUANTITY: koff (s⁻¹)

>>> experimental_result("H4H12166P5 (antibody, human IgG4, V domains shown, human IgG4 Fc with S108P hinge mutation) VH: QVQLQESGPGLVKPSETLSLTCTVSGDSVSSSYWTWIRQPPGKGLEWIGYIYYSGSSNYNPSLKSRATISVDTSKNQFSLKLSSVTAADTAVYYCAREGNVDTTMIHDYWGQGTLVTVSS VL: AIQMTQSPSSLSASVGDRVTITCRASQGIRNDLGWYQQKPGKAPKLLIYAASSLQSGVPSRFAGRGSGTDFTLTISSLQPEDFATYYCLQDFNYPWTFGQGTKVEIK")
0.00122
>>> experimental_result("H4H12166P2 (antibody, human IgG4, V domains shown, human IgG4 Fc with S108P hinge mutation) VH: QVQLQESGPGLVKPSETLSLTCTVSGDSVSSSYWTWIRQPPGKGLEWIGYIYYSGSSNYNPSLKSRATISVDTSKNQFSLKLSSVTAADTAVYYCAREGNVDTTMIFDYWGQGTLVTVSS VL: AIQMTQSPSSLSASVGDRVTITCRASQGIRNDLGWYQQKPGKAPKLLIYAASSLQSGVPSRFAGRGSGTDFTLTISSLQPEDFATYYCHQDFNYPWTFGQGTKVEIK")
0.00123
>>> experimental_result("H4H12159P (antibody, human IgG4, V domains shown) VH: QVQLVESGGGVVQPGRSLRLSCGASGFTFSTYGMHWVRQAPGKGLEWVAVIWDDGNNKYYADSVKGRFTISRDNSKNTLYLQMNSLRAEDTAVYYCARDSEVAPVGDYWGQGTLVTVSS VL: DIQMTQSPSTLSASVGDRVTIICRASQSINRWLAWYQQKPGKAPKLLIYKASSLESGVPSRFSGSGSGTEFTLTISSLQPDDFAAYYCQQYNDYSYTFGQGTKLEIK")
0.000107
